Data credit: ChEMBL document CHEMBL1201862

Would you mind telling me the reported GI50 of each entry?
System: SK-MEL-5
Assay: NCI tumour cell line growth inhibition, 48 h
The source made the active and inactive calls. Rule as the data show it: active = GI50 up to about 1.1 µM and inactive = higher.

Entry CC1(C)CC2=NOS3=C2C(=NO3)C1c1ccccn1 (stereo not given) : reported GI50 = ?
17.8 µM (inactive)

Queued: `Cc1ccc(Sc2ccccc2N)cc1`
20.7 µM (inactive)

Queued: CCC1=CCC(P(=O)(c2ccccc2)c2ccccc2)CC1C (stereo not given)
28 µM (inactive)

Queued: `COc1ccc(/C(=C/n2ccnc2)C(=O)c2ccc(OC)c(OC)c2)cc1`
> 100 µM (inactive)

Queued: `CC(C)OC(=O)NNc1cccc(Cl)c1`
> 100 µM (inactive)
